Measured DC50, listed per entry.
measured target: TYK2 (Homo sapiens, UniProt P29597)
Sequence (P29597 whole entry): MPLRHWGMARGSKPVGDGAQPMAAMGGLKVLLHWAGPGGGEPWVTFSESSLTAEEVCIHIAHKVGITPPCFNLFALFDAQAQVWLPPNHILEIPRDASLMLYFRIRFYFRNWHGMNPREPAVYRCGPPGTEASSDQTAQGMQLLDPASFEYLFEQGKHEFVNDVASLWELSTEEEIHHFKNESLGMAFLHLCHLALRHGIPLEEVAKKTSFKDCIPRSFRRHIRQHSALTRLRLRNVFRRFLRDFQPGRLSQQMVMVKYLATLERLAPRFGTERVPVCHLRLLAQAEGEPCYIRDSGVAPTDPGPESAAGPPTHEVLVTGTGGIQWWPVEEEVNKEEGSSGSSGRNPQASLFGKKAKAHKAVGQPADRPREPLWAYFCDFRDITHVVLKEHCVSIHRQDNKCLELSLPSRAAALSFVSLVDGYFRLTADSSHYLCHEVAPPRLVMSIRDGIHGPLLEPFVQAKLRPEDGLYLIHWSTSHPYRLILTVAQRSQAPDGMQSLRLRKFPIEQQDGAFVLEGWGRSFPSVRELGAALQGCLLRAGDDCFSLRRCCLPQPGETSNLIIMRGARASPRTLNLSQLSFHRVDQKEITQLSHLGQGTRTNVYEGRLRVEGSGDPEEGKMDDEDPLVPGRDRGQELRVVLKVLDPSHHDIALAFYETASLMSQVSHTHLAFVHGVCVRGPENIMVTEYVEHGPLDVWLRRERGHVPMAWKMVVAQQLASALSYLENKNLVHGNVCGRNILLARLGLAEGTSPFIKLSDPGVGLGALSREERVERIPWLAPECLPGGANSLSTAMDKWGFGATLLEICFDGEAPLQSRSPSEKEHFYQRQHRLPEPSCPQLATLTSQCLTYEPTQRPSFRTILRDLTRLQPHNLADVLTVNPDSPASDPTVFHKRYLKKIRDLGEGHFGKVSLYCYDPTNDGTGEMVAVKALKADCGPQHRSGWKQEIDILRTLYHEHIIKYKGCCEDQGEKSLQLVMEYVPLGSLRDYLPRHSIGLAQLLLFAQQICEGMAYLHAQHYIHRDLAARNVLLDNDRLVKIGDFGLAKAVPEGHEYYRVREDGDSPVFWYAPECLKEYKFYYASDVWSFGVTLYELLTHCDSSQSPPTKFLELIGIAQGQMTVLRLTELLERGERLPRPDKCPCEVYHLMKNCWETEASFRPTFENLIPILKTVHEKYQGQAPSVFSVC
protocol summary: TYK2 degradation MSD assay in EBV-B cells
Assay type: cell-based
Parameters: endogenous in cells; host or cells: EBV-B cells
stated conditions: 4 to 24 hours incubation, read-out: TYK2 MSD DC50 rating in EBV-B

compound	recorded metric	test result
CNC(=O)c1cnc(Nc2ccc(C(=O)NCCCCCCCCc3cccc4c3n(C)c(=O)n4C3CCC(=O)NC3=O)cn2)cc1Nc1cccc(-c2ncc(F)cn2)c1OC (centres unmarked)	DC50	1 to 10 nM

QUERY: What DC50 value was documented for this compound, CNC(=O)c1cnc(Nc2ccc(CN3CCN(Cc4ccc5c(c4)n(C)c(=O)n5C4CCC(=O)NC4=O)CC3)cn2)cc1Nc1cccc(-c2ncc(F)cn2)c1OC (centres unmarked) ?
RESULT: > 100 nM

QUERY: I would be grateful if you could share the reported DC50 for Cn1c(=O)n(C2CCC(=O)NC2=O)c2cccc(C#CC3CCN(Cc4ccc(-c5cccc(Nc6ccc7ncc(C(=O)NC8CC8)n7n6)c5)nc4)CC3)c21 (centres unmarked) .
RESULT: > 100 nM

QUERY: Given the entry CNc1cc(-c2ccc(-c3ccc(CN4CCN(c5ccc(-c6ccc7c(c6)n(C)c(=O)n7C6CCC(=O)NC6=O)cc5)CC4)cc3)c3nccn23)nn2c(C(=O)N[C@@H]3C[C@@H]3C)cnc12 (some centres unmarked) , report its measured DC50.
RESULT: > 100 nM

QUERY: # lookup: DC50 of CNc1cc(N2CCc3c(-c4ccc(CN5CCN([C@H]6CC[C@H](c7ccc(-c8ccc9c(c8)n(C)c(=O)n9C8CCC(=O)NC8=O)cc7)CC6)CC5)cn4)cccc32)nn2c(C(=O)N[C@@H]3CC3F)cnc12 (some centres unmarked)
RESULT: > 100 nM

----------
measured target: UniProtKB P29597
protocol summary: TYK2 degradation MSD assay in human PBMC cells
Assay type: cell-based
Set-up: endogenous in cells; host or cells: human PBMC
stated conditions: 4 to 24 hours incubation, read-out: TYK2 MSD DC50 rating in human PBMC
recorded metric: DC50

Solved entries:
compound	measured target	DC50
Cc1cc(C)cc(Nc2cc(NCCCCc3ccc4c(c3)n(C)c(=O)n4C3CCC(=O)NC3=O)c3ncc(C(=O)N[C@@H]4C[C@@H]4F)n3n2)c1 (stereo partly drawn) [Example K402]	UniProtKB P29597	> 100 nM
CNc1cc(N2CCc3c(-c4cc(N5CCN(c6ccc7c(c6)n(C)c(=O)n7C6CCC(=O)NC6=O)CC5)ccn4)cccc32)nn2c(C(=O)C[C@@H]3C[C@@H]3F)cnc12 (stereo partly drawn) [Example K652]	UniProtKB P29597	> 100 nM

Lab note: next compound to report on.
QUERY: # input compound: CNC(=O)c1cnc(Nc2ccc(CN3CCN(CCc4ccc5c(c4)n(C)c(=O)n5C4CCC(=O)NC4=O)CC3)cn2)cc1Nc1cccc(-c2ncc(F)cn2)c1OC (stereo not drawn) [Example K138] ; wanted: its DC50
RESULT: < 1 nM

----------
measured target: TYK2 (Homo sapiens, UniProt P29597)
protocol summary: TYK2 degradation MSD assay in human PBMC cells
Assay type: cell-based
Design: endogenous in cells; host or cells: human PBMC
stated conditions: 4 to 24 hours incubation, read-out: TYK2 MSD DC50 rating in human PBMC
The reader will find reported DC50 values listed item by item below.

Worked examples follow.
molecule	DC50
Cn1c(=O)n(C2CCC(=O)NC2=O)c2ccc(-c3ccc(N4CCN(Cc5ccc(-c6cccc(Nc7cc(NC8CC8)n8ncc(C(=O)N[C@@H]9C[C@@H]9F)c8n7)c6)nc5)CC4)cc3)cc21 (stereo partly shown) [Example K509]	> 100 nM
CNc1cc(N2CCc3c(-c4ccc(CN5CC(C6CCN(C(=O)c7ccc(Cl)c(N8CCC(=O)NC8=O)c7)CC6)C5)cn4)cccc32)nn2c(C(=O)N[C@@H]3C[C@@H]3F)cnc12 [Example K525]	> 100 nM
CNc1cc(Nc2cccn(-c3ccc(CN4CCN(c5ccc(-c6ccc7c(c6)n(C)c(=O)n7C6CCC(=O)NC6=O)cn5)C(=O)C4)cn3)c2=O)nn2c(C(=O)N[C@@H]3C[C@@H]3F)cnc12 (stereo partly shown) [Example K457]	> 100 nM

QUERY: Please look up its DC50: O=C1CCN(c2cc(C(=O)N3CCC4(CC3)CN(Cc3ccc(-c5cccc6c5CCN6c5ccc6ncc(C(=O)NC7CC7)n6n5)nc3)C4)ccc2Cl)C(=O)N1 [Example K554]
RESULT: > 100 nM

QUERY: # lookup: DC50 of CNc1cc(-c2cnn(C3CCN(C(=O)NCCCCCCCCc4cccc5c4n(C)c(=O)n5C4CCC(=O)NC4=O)CC3)c2)nn2c(C(=O)N[C@@H]3C[C@@H]3F)cnc12 (stereo partly shown) [Example K313]
RESULT: 1 to 10 nM

QUERY: Item under review: CNc1cc(N2CCc3c(-c4cc(CN5CCN(c6ccc(-c7ccc8c(c7)n(C)c(=O)n8C7CCC(=O)NC7=O)cc6)CC5)ccn4)cccc32)nn2c(C(=O)N[C@@H]3C[C@@H]3F)cnc12 (stereo partly shown) [Example K658] . Reported DC50?
RESULT: > 100 nM

QUERY: Report DC50 for CNC(=O)c1cnc(Nc2ccc(C(=O)NCCCCc3ccc4c(c3)n(C)c(=O)n4C3CCC(=O)NC3=O)cn2)cc1Nc1cccc(-c2ncc(F)cn2)c1OC (stereo not shown) [Example K107] please.
RESULT: < 1 nM

QUERY: Reported DC50 for CNc1cc(Nc2cccn(-c3ccc(C(=O)N4CCC(OCC#Cc5cccc6c5n(C)c(=O)n6C5CCC(=O)NC5=O)CC4)cn3)c2=O)nn2c(C(=O)N[C@@H]3C[C@@H]3F)cnc12 (stereo partly shown) [Example K421] : what is it?
RESULT: > 100 nM

QUERY: Fill in the blank: the reported DC50 of CNc1cc(N2CCc3c(N4CCC(CN5CC6(C5)CN(c5ccc(-c7ccc8c(c7)n(C)c(=O)n8C7CCC(=O)NC7=O)cc5)C6)CC4)cccc32)nn2c(C(=O)N[C@@H]3C[C@@H]3F)cnc12 (stereo partly shown) [Example K573] is ____.
RESULT: > 100 nM

QUERY: Given the molecule CNc1cc(Nc2cccn(-c3ccc(C(=O)N4CCN(c5ccc(-c6ccc7c(c6)n(C)c(=O)n7C6CCC(=O)NC6=O)cn5)C(=O)C4)cn3)c2=O)nn2c(C(=O)N[C@@H]3C[C@@H]3F)cnc12 (stereo partly shown) [Example K378] , what is its reported DC50?
RESULT: > 100 nM
